- Test system: OVCAR-4
- EXPERIMENT_DESCRIPTION: cells
- Type: cell-based
- PROTOCOL_CONDITIONS: OVCAR-4 (Ovarian Cancer), 10 μM, 48 hours
Label Yes when growth percentage >= 90%; otherwise No.

Quick check: does CNc1nc2ccccc2c2c1-c1ccc(Cl)cc1C2=O [SJ-1] have growth percentage greater than or equal to 90%?
No

Quick check: does CN1CCN(c2nc3ccccc3c3c2-c2ccc(Cl)cc2C3=O)CC1 [SJ-12] have growth percentage greater than or equal to 90%?
Yes

Quick check: does CC1CCN(c2nc3ccccc3c3c2-c2ccc(Cl)cc2C3=O)CC1 [SJ-6] have growth percentage greater than or equal to 90%?
Yes

Quick check: does O=C1c2cc(Cl)ccc2-c2c(SCCO)nc3ccccc3c21 [SJ-25] have growth percentage greater than or equal to 90%?
No

Quick check: does O=C1c2cc(Cl)ccc2-c2c(N3CCN(C4CCCC4)CC3)nc3ccccc3c21 [SJ-14] have growth percentage greater than or equal to 90%?
Yes

Quick check: does O=C1c2cc(Cl)ccc2-c2c(O)nc3ccccc3c21 [SJ-26] have growth percentage greater than or equal to 90%?
No

Quick check: does CN(C)c1nc2ccccc2c2c1-c1ccc(Cl)cc1C2=O [SJ-2] have growth percentage greater than or equal to 90%?
No

Quick check: does O=C1c2cc(Cl)ccc2-c2c(N3CCNCC3)nc3ccccc3c21 [SJ-10] have growth percentage greater than or equal to 90%?
No

Quick check: does O=C1c2cc(Cl)ccc2-c2c(N3CCN(C(=O)N4CCCCC4)CC3)nc3ccccc3c21 [SJ-23] have growth percentage greater than or equal to 90%?
Yes

Quick check: does O=C1c2cc(Cl)ccc2-c2c(N3CCSCC3)nc3ccccc3c21 [SJ-9] have growth percentage greater than or equal to 90%?
Yes

* * *

- Tested on: U251
- EXPERIMENT_DESCRIPTION: cells
- Format: cell-based
- PROTOCOL_CONDITIONS: U251 (CNS Cancer), 10 μM, 48 hours
READOUT_LABEL: growth percentage (%)
The reply should contain only the number, in %.

Would you kindly share the measured growth percentage for O=C1c2cc(Cl)ccc2-c2c(Cl)nc3ccccc3c21 [TC-XCl-1] ?
100.63

Would you kindly share the measured growth percentage for CNc1nc2ccccc2c2c1-c1ccc(Cl)cc1C2=O [SJ-1] ?
96.03

Would you kindly share the measured growth percentage for O=C1c2cc(Cl)ccc2-c2c(O)nc3ccccc3c21 [SJ-26] ?
96.46

Would you kindly share the measured growth percentage for O=C1c2cc(Cl)ccc2-c2c(SCCO)nc3ccccc3c21 [SJ-25] ?
78.04

Would you kindly share the measured growth percentage for O=C1c2cc(Cl)ccc2-c2c(N3CCOCC3)nc3ccccc3c21 [SJ-8] ?
95.72

Would you kindly share the measured growth percentage for CN(C)c1nc2ccccc2c2c1-c1ccc(Cl)cc1C2=O [SJ-2] ?
98.98

Would you kindly share the measured growth percentage for CN1CCN(c2nc3ccccc3c3c2-c2ccc(Cl)cc2C3=O)CC1 [SJ-12] ?
85.86

Would you kindly share the measured growth percentage for COc1nc2ccccc2c2c1-c1ccc(Cl)cc1C2=O [SJ-27] ?
97.67

Would you kindly share the measured growth percentage for O=C1c2cc(Cl)ccc2-c2c(N3CCSCC3)nc3ccccc3c21 [SJ-9] ?
111.96

Would you kindly share the measured growth percentage for O=C1c2cc(Cl)ccc2-c2c(N3CCN(C(=O)N4CCCCC4)CC3)nc3ccccc3c21 [SJ-23] ?
98.15
